Target: varicella zoster virus DNA polymerase (Varicella-zoster virus)
Construct: made in house; host or cells: SF21 insect cells (baculovirus vector)
Sequence (P09252 whole entry): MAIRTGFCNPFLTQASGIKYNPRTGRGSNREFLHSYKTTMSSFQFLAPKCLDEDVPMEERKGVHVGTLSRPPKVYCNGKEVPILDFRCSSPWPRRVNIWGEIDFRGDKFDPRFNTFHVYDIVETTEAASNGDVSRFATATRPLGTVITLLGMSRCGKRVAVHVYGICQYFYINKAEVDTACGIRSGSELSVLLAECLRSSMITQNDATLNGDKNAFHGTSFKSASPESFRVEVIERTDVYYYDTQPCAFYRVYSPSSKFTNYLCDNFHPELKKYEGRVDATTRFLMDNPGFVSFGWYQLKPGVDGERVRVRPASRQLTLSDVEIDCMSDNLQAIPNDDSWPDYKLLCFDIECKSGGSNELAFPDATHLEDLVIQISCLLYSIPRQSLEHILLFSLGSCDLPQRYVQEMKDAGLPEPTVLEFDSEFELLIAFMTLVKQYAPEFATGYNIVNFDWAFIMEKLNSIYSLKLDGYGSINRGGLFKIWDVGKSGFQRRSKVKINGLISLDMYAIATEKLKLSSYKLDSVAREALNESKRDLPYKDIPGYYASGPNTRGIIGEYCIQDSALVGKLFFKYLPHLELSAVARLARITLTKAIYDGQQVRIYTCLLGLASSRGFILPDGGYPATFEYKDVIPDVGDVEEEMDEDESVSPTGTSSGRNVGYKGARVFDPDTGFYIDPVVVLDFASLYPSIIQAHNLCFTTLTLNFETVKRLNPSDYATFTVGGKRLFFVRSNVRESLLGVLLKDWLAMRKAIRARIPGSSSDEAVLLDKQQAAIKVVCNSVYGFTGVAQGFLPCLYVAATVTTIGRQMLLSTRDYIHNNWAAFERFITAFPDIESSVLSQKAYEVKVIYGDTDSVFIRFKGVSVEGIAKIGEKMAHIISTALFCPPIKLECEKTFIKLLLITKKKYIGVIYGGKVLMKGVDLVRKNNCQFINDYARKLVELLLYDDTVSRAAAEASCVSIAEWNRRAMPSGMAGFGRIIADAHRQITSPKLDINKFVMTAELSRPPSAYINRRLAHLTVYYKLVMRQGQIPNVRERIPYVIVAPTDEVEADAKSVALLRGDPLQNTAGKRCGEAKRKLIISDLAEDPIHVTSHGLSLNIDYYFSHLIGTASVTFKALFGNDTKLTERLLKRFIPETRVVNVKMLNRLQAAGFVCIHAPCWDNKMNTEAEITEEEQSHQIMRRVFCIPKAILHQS
Assay: VZV polymerase assay (AlphaLISA, IC50)
Type: biochemical
Settings: polymerase assay of Example 190
Metric: pIC50
In textbook form, pIC50 equals minus log to base ten of the concentration in mol/L.

Task item: Missing value: pIC50, varicella zoster virus DNA polymerase (Varicella-zoster virus), entry CC(=O)N1CCC(Oc2cc(C(=O)NCc3ccc(Cl)cc3)[n+]([O-])cc2-c2cnn(C(F)F)c2)CC1 [Compound 132] . Fill in?
Reply: 7.39

Task item: Missing value: pIC50, varicella zoster virus DNA polymerase (Varicella-zoster virus), entry COC/C=C/c1cnc(C(=O)NCc2ccc(Cl)cc2)cc1O[C@H]1CCN2C(=O)OC[C@@H]2C1 [Compound 155b] . Fill in?
Reply: 8.02

Task item: Missing value: pIC50, varicella zoster virus DNA polymerase (Varicella-zoster virus), entry CC(C)Cn1cc(-c2cnc(C(=O)NCc3ccc(Cl)cc3)cc2O[C@H]2CCN3C(=O)OC[C@@H]3C2)cn1 (racemic) [Compound 11] . Fill in?
Reply: 7.29

Task item: Missing value: pIC50, varicella zoster virus DNA polymerase (Varicella-zoster virus), entry O=C(NCc1ccc(Cl)nc1)c1cc(O[C@H]2CCN3C(=O)OC[C@@H]3C2)c(-c2cnn(C(F)F)c2)cn1 [Compound 86] . Fill in?
Reply: 7.69

Task item: Missing value: pIC50, varicella zoster virus DNA polymerase (Varicella-zoster virus), entry CC(=O)N1CCC(Oc2cc(C(=O)NCc3ccc(Cl)cc3)ncc2-c2cnco2)CC1 [Compound 65] . Fill in?
Reply: 7.93

Task item: Missing value: pIC50, varicella zoster virus DNA polymerase (Varicella-zoster virus), entry O=C(NCc1ccc(Cl)cc1)c1cc(O[C@H]2CCN3C(=O)OC[C@@H]3C2)c(CN2CCCC(O)C2)cn1 (mixture of isomers) [Compound 140] . Fill in?
Reply: 7.26

Task item: Missing value: pIC50, varicella zoster virus DNA polymerase (Varicella-zoster virus), entry O=C(NCc1ccc(Cl)cc1)c1cc(O[C@H]2CCN3C(=O)OC[C@@H]3C2)c(CN2CCSCC2)cn1 [Compound 139] . Fill in?
Reply: 7.88

Task item: Missing value: pIC50, varicella zoster virus DNA polymerase (Varicella-zoster virus), entry O=C(NCc1ccc(Cl)cc1)c1cc(O[C@H]2CCN3C(=O)OC[C@@H]3C2)c(O)cn1 [Compound 146] . Fill in?
Reply: 8.09

Task item: Missing value: pIC50, varicella zoster virus DNA polymerase (Varicella-zoster virus), entry C[C@@H]1CN(C)CCN1c1cc(C(=O)NCc2ccc(Cl)cc2)ncc1C#N [Compound 175] . Fill in?
Reply: 7.11

Task item: Missing value: pIC50, varicella zoster virus DNA polymerase (Varicella-zoster virus), entry O=C(NCc1ccc(Cl)cn1)c1cc(O[C@H]2CCN3C(=O)OC[C@@H]3C2)c(-c2cnn(C(F)F)c2)cn1 [Compound 90] . Fill in?
Reply: 6.98

----------
Assignment: determine reported pEC50 for the given molecules.
Test system: HCMV Strain AD169 in MRC-5 cells
Assay: Viral qPCR assay HCMV (V0/V1, V2/V3), EC50
Type: cell-based
Conditions: Human betaherpesvirus 5, AD169, MRC5, viral qPCR assay of Example 191; read-out: HCMV Cell (EC50)
In textbook form, pEC50 equals minus log to base ten of the concentration in mol/L.

Task item: Which pEC50 value belongs to O=C(NCc1ccc(Cl)cc1)c1cc(O[C@H]2CCN3C(=O)OC[C@@H]3C2)c(-c2cnc(C3CC3)o2)cn1 [Compound 33] ?
Reply: 6.92

Task item: Which pEC50 value belongs to O=C(NCc1ccc(F)c(F)c1F)c1cc(O[C@H]2CCN3C(=O)OC[C@@H]3C2)c(-c2cnn(C(F)F)c2)cn1 [Compound 87] ?
Reply: 6.20

Task item: Which pEC50 value belongs to O=C(NCc1ccc([N+](=O)[O-])cc1)c1cc(O[C@H]2CCN3C(=O)OC[C@@H]3C2)c(-c2cnn(C(F)F)c2)cn1 [Compound 82] ?
Reply: 7.04

Task item: Which pEC50 value belongs to CC(=O)N1CCC(Oc2cc(C(=O)NCc3ccc(Cl)cc3)ncc2-c2cn(C)nn2)CC1 [Compound 59] ?
Reply: 6.01

Task item: Which pEC50 value belongs to O=C(NCc1ccc(Cl)cc1)c1cc(O[C@H]2CCN3C(=O)OC[C@@H]3C2)c(-c2nccs2)cn1 [Compound 40] ?
Reply: 7.25

Task item: Which pEC50 value belongs to Cc1ncc(-c2cnc(C(=O)NCc3ccc(Cl)cc3)cc2O[C@H]2CCN3C(=O)OC[C@@H]3C2)s1 [Compound 42] ?
Reply: 7.23

Task item: Which pEC50 value belongs to CC(C)(C)n1cc(-c2cnc(C(=O)NCc3ccc(Cl)cc3)cc2O[C@H]2CCN3C(=O)OC[C@@H]3C2)cn1 (racemic) [Compound 12] ?
Reply: 5.94

Task item: Which pEC50 value belongs to Cc1ccn(-c2cnc(C(=O)NCc3ccc(Cl)cc3)cc2O[C@H]2CCN3C(=O)OC[C@@H]3C2)n1 [Compound 106] ?
Reply: 6.03

Task item: Which pEC50 value belongs to CC(=O)N1CCC(Oc2cc(C(=O)NCc3ccc(Cl)cc3)ncc2-c2cc[nH]n2)CC1 [Compound 64] ?
Reply: 5.99

----------
Tested on: HSV-1 Strain F in Vero or MRC5 cells
Experiment: Viral qPCR assay HSV-1 (V0/V1, V2/V3), EC50
Type: cell-based
Settings: Human alphaherpesvirus 1, Vero, VERO cells, 10%; read-out: HSV1 Cell (EC50) VERO 10%
So basically, if EC50 comes in under 0.6 µM it's Met, and if it's 0.6 µM or more it's Not met.

Task item: Please let me know if CC(=O)N1CCC(Oc2cc(C(=O)NCc3ccc(Cl)cc3)ncc2/C=C\c2ccccn2)CC1 shows EC50 below 0.6 µM.
Reply: Met

Task item: Please let me know if CC(=O)N1CCC(Oc2cc(C(=O)NCc3ccc(Cl)cc3)ncc2C#Cc2ccc(C)cn2)CC1 shows EC50 below 0.6 µM.
Reply: Met

Task item: Please let me know if O=C(NCc1ccc(Cl)cc1)c1cc(O[C@H]2CCN3C(=O)OC[C@@H]3C2)c(CNC2CC2)cn1 shows EC50 below 0.6 µM.
Reply: Met

Task item: Please let me know if CC(C)n1ccc(-c2cnc(C(=O)NCc3ccc(Cl)cc3)cc2O[C@H]2CCN3C(=O)OC[C@@H]3C2)n1 shows EC50 below 0.6 µM.
Reply: Met

Task item: Please let me know if O=C(NCc1ccc(F)c(F)c1F)c1cc(O[C@H]2CCN3C(=O)OC[C@@H]3C2)c(-c2cnn(C(F)F)c2)cn1 shows EC50 below 0.6 µM.
Reply: Met

Task item: Please let me know if Cc1cnn(-c2cnc(C(=O)NCc3ccc(Cl)cc3)cc2O[C@H]2CCN3C(=O)OC[C@@H]3C2)c1 shows EC50 below 0.6 µM.
Reply: Not met

Task item: Please let me know if O=C(NCc1ccc(Cl)cc1)c1cc(O[C@H]2CCN3C(=O)OC[C@@H]3C2)c(-c2cnn(C(F)F)c2)cn1 shows EC50 below 0.6 µM.
Reply: Met

Task item: Please let me know if CC(=O)N1CCC(Oc2cc(C(=O)NCc3ccc(Cl)cc3)ncc2C#Cc2cc(C)ccn2)CC1 shows EC50 below 0.6 µM.
Reply: Not met

Task item: Please let me know if CC1(O)CCN(Cc2cnc(C(=O)NCc3ccc(Cl)cc3)cc2O[C@H]2CCN3C(=O)OC[C@@H]3C2)C1 (mixture of isomers) shows EC50 below 0.6 µM.
Reply: Not met

----------
Metric: pIC50
In textbook form, pIC50 equals minus log to base ten of the concentration in mol/L.

Task item: Missing value: pIC50, Human cytomegalovirus DNA polymerase (Human cytomegalovirus), entry O=C(c1cc(O[C@H]2CCN3C(=O)OC[C@@H]3C2)c(-c2cnn(C(F)F)c2)cn1)N(CO)Cc1ccc(Cl)cc1 . Fill in?
Reply: 7.53

Task item: Missing value: pIC50, Human cytomegalovirus DNA polymerase (Human cytomegalovirus), entry O=C(NCc1ccc(Cl)cc1)c1cc(O[C@H]2CCN3C(=O)OC[C@@H]3C2)c(/C=C/CO)cn1 . Fill in?
Reply: 8.13

Task item: Missing value: pIC50, Human cytomegalovirus DNA polymerase (Human cytomegalovirus), entry Cn1cc(-c2cnc(C(=O)NCc3ccc(Cl)cc3)cc2O[C@H]2CCN3C(=O)NC[C@H]3C2)cn1 (racemic) . Fill in?
Reply: 6.66

Task item: Missing value: pIC50, Human cytomegalovirus DNA polymerase (Human cytomegalovirus), entry CN1CCC(C(=O)OCN(Cc2ccc(Cl)cc2)C(=O)c2cc(O[C@H]3CCN4C(=O)OC[C@@H]4C3)c(-c3cnn(C(F)F)c3)cn2)CC1 . Fill in?
Reply: 6.70

Task item: Missing value: pIC50, Human cytomegalovirus DNA polymerase (Human cytomegalovirus), entry C[C@@H]1CN(C)CCN1c1cc(C(=O)NCc2ccc(Cl)cc2)nc(-c2cnn(CCO)c2)c1 . Fill in?
Reply: 6.22

Task item: Missing value: pIC50, Human cytomegalovirus DNA polymerase (Human cytomegalovirus), entry N#Cc1cnc(C(=O)NCc2ccc(Cl)cc2)cc1O[C@H]1CCN2C(=O)CC[C@@H]2C1 (racemic) . Fill in?
Reply: 7.17

Task item: Missing value: pIC50, Human cytomegalovirus DNA polymerase (Human cytomegalovirus), entry O=C(NCc1ccc(Cl)cc1)c1cc(O[C@H]2CCN3C(=O)OC[C@@H]3C2)c(-c2cnn(C3COC3)c2)cn1 . Fill in?
Reply: 8.35

Task item: Missing value: pIC50, Human cytomegalovirus DNA polymerase (Human cytomegalovirus), entry N#Cc1cnc(C(=O)NCc2ccc(Cl)cc2)cc1O[C@H]1CCN2C(=O)OCC[C@@H]2C1 . Fill in?
Reply: 7.74

Task item: Missing value: pIC50, Human cytomegalovirus DNA polymerase (Human cytomegalovirus), entry Cc1c[n+]([O-])c(C(=O)NCc2ccc(Cl)cc2)cc1O[C@H]1CCN2C(=O)OC[C@@H]2C1 . Fill in?
Reply: 7.05

Task item: Missing value: pIC50, Human cytomegalovirus DNA polymerase (Human cytomegalovirus), entry O=C(NCc1ccc([N+](=O)[O-])cc1)c1cc(O[C@H]2CCN3C(=O)OC[C@@H]3C2)c(-c2cnn(C(F)F)c2)cn1 . Fill in?
Reply: 7.80

Task item: Missing value: pIC50, Human cytomegalovirus DNA polymerase (Human cytomegalovirus), entry Cc1cnn(-c2cnc(C(=O)NCc3ccc(Cl)cc3)cc2O[C@H]2CCN3C(=O)OC[C@@H]3C2)c1 . Fill in?
Reply: 6.65

Task item: Missing value: pIC50, Human cytomegalovirus DNA polymerase (Human cytomegalovirus), entry Cc1nsc(-c2cnc(C(=O)NCc3ccc(Cl)cc3)cc2O[C@H]2CCN3C(=O)OC[C@@H]3C2)n1 . Fill in?
Reply: 7.99

Task item: Missing value: pIC50, Human cytomegalovirus DNA polymerase (Human cytomegalovirus), entry O=C(NCc1ccc(Cl)cc1)c1cc(O[C@H]2CCN3C(=O)OC[C@@H]3C2)c(-c2ccn(CC(F)(F)F)n2)cn1 . Fill in?
Reply: 7.36

Task item: Missing value: pIC50, Human cytomegalovirus DNA polymerase (Human cytomegalovirus), entry O=C(NCc1ccc(Br)cc1)c1cc(O[C@H]2CCN3C(=O)OC[C@@H]3C2)c(-c2cnn(C(F)F)c2)cn1 . Fill in?
Reply: 7.92

Task item: Missing value: pIC50, Human cytomegalovirus DNA polymerase (Human cytomegalovirus), entry CC(=O)N1CCC(Oc2cc(C(=O)NCc3ccc(Cl)cc3)ncc2-c2cn[nH]c2)CC1 . Fill in?
Reply: 6.96

Task item: Missing value: pIC50, Human cytomegalovirus DNA polymerase (Human cytomegalovirus), entry O=C(NCc1ccc(Cl)cc1)c1cc(O[C@H]2CCN3C(=O)OC[C@@H]3C2)c(CCO)cn1 . Fill in?
Reply: 7.26

Task item: Missing value: pIC50, Human cytomegalovirus DNA polymerase (Human cytomegalovirus), entry CCn1cc(-c2cnc(C(=O)NCc3ccc(Cl)cc3)cc2O[C@H]2CCN3C(=O)OC[C@@H]3C2)cn1 (racemic) . Fill in?
Reply: 7.68

Task item: Missing value: pIC50, Human cytomegalovirus DNA polymerase (Human cytomegalovirus), entry CC(=O)N1CCC(Oc2cc(C(=O)NCc3ccc(Cl)cc3)ncc2-c2cnn(C)n2)CC1 . Fill in?
Reply: 6.91

Task item: Missing value: pIC50, Human cytomegalovirus DNA polymerase (Human cytomegalovirus), entry CC(=O)N1CCC(Oc2cc(C(=O)NCc3ccc(Cl)cc3)ncc2-c2cnn(C(F)F)c2)CC1C (stereo not shown) . Fill in?
Reply: 7.54
